Test system: RS4-11 cells
Assay Procedure: Cell viability assay (CellTiter-Glo), RS4-11
Format: cell-based
Experimental Conditions: 3 days of incubation
Observable: CC50

Q: What CC50 value was documented for this compound, COc1cccc(CN(C(=O)c2cc(-c3cc(Cl)c(F)cc3C(=O)N3Cc4ccccc4C[C@H]3CN3CCOCC3)n(C)c2C)c2ccc(C#N)cc2)c1C [Compound 73] ?
Ans: > 200 nM

* * *

Assay Target: BCL-2 [G101V] (Homo sapiens (Human), UniProt P10415, G101V)
Assay Procedure: BCL-2 [G101V] TR-FRET Assay (primary PPI inhibition)
Experimental Conditions: 60 min incubation, read-out: BCL2[G101V] IC50
pIC50: −log10 of the molar value.
Observable: pIC50

Example cases with answers are listed next.
>>> print(df.to_string())
                                smiles_data                              assay_target  observed_result
0  COc1cccc(CN(C(=O)c2cc(-c3cc(Cl)ccc3C(=O)N3Cc4ccccc4C[C@H]3CN3CCOCC3)n(C)c2C)c2ccc(O)cc2)c1C  BCL-2 [G101V] (Homo sapiens (Human), UniProt P10415, G101V)           ≥ 7.00
1  COc1cc(C(=O)N2Cc3ccccc3C[C@H]2CN2CCOCC2)c(-c2cc(C(=O)N(Cc3cccc(OC)c3C)c3ccc(O)cc3)c(C)n2C)cc1F  BCL-2 [G101V] (Homo sapiens (Human), UniProt P10415, G101V)     6.00 to 7.00

Q: What pIC50 value was documented for this compound, `COc1cccc(CN(C(=O)c2cc(-c3cc(NC(C)=O)ccc3C(=O)N3Cc4ccccc4C[C@H]3CN3CCOCC3)n(C)c2C)c2ccc(O)cc2)c1C` ?
Ans: 6.00 to 7.00

Cited source for all entries: patent US20250115577A1
